test: Phase 1 first-in-human study, single oral dose pharmacokinetics in healthy subjects (drug layered formulation capsules); format: in vivo; conditions: human, plasma, po, 100 mg, single oral dose 100 mg, fasted state, geometric mean
readoutType: half-life

Which half-life value belongs to OC[C@H]1O[C@H](Sc2cncc(Br)c2)[C@H](O)[C@@H](n2cc(-c3cc(F)c(F)c(F)c3)nn2)[C@H]1O ?
12.1 h

---

assay: Phase 1 first-in-human study, single oral dose pharmacokinetics in healthy subjects (drug layered formulation capsules); format: in vivo; settings: human, plasma, po, 50 mg, single oral dose 50 mg (1 × 50 mg), fasted state, geometric mean
readoutType: half-life (h)
Expressed in h, but write only the number.

If you can, please state the reported half-life value of OC[C@H]1O[C@H](Sc2cncc(Br)c2)[C@H](O)[C@@H](n2cc(-c3cc(F)c(F)c(F)c3)nn2)[C@H]1O .
12.6

---

Test: Phase 1 study, multiple oral dose (twice a day for 10 days) pharmacokinetics in healthy subjects
Assay type: in vivo, human
Details: human, plasma, po, 100 mg, 100 mg BID oral, fasted state, Day 10, healthy subjects, geometric mean
Description: The second part of this study aims to obtain safety, tolerability and pharmacokinetic data when the compound of formula I is administered orally dosed twice a day for 10 days in healthy subjects using the above drug layered formulation. Experimental Data from Healthy Subject Cohort B1: 50 mg Compound of Formula I (API) 8 healthy subjects received 50 mg of compound of formula I capsules and 3 subjects receive placebo orally twice a day for 10 days. […]
readoutType: half-life (h)
Field format: number, assumed h, no unit text.

Record request: half-life value, item OC[C@H]1O[C@H](Sc2cncc(Br)c2)[C@H](O)[C@@H](n2cc(-c3cc(F)c(F)c(F)c3)nn2)[C@H]1O [GB1211]
12.5

---

test: Phase 1 first-in-human study, single oral dose pharmacokinetics in healthy subjects (drug layered formulation capsules); type: in vivo; conditions: human, plasma, po, 50 mg, single oral dose 50 mg (1 × 50 mg), fasted state, median
readoutType: Tmax (h)
Please reply with the bare figure in h and do not write the unit itself.

Request the reported Tmax associated with OC[C@H]1O[C@H](Sc2cncc(Br)c2)[C@H](O)[C@@H](n2cc(-c3cc(F)c(F)c(F)c3)nn2)[C@H]1O [GB1211]
3

---

experiment: Phase 1 first-in-human study, single oral dose pharmacokinetics in healthy subjects (drug layered formulation capsules); assay type: in vivo; settings: human, plasma, po, 50 mg, single oral dose 50 mg (10 × 5 mg), fasted state, geometric mean, read-out: AUC0-24
readoutType: AUC(0-t) (ng·h/mL)
Field: numeric (ng·h/mL). Do not append units.

Name the recorded AUC(0-t) for OC[C@H]1O[C@H](Sc2cncc(Br)c2)[C@H](O)[C@@H](n2cc(-c3cc(F)c(F)c(F)c3)nn2)[C@H]1O .
5770

---

assay: Phase 1 first-in-human study, single oral dose pharmacokinetics in healthy subjects (drug layered formulation capsules); format: in vivo; conditions: human, plasma, po, 400 mg, single oral dose 400 mg, fasted state, geometric mean
readoutType: half-life
Include the unit after the number when you answer.

Query: half-life; subject: OC[C@H]1O[C@H](Sc2cncc(Br)c2)[C@H](O)[C@@H](n2cc(-c3cc(F)c(F)c(F)c3)nn2)[C@H]1O [GB1211]
14.5 h

---

assay: Phase 1 first-in-human study, single oral dose pharmacokinetics in healthy subjects (drug layered formulation capsules); format: in vivo; details: human, single oral dose 400 mg, fasted state, plasma, geometric mean
readoutType: AUC(0-inf) (ng·h/mL)
Expressed in ng·h/mL, but write only the number.

What AUC(0-inf) value was documented for this compound, OC[C@H]1O[C@H](Sc2cncc(Br)c2)[C@H](O)[C@@H](n2cc(-c3cc(F)c(F)c(F)c3)nn2)[C@H]1O [GB1211] ?
21500

Source of measurements: patent US20220064204A1
